Recorded values, source PubChem BioAssay (NCATS).

- protocol_text: qHTS Assay for Lipid Storage Modulators (AID 1519)
- test_parameters: Drosophila S3 cells, BODIPY lipid droplet/cell ratio, laser cytometry; measured here: lipid channel max response; cells loaded with oleic acid
Results filed as inconclusive are left out.
measure_name: max response (%)

molecule	measure_name	reported_result
O=c1[nH]cnc2c1nc(Cl)n2C1OC(CO)C(O)C1O (configuration not stated)	max response	10.4
Cc1nccn1C[C@@H]1CCc2c(c3ccccc3n2C)C1=O	max response	-16.3
COc1cc(-c2oc3cc(O)ccc3c(=O)c2O)ccc1O	max response	-26.5
CC1(C)C=Cc2cc3ccc(=O)oc3cc2O1	max response	7.43
CC[C@H](CC[C@@H](C)C1CC[C@H]2[C@@H]3CC=C4C[C@@H](O)CC[C@]4(C)[C@H]3CC[C@]12C)C(C)C (some centres not stated)	max response	42.8
CC(=O)C1CCC2C3CC(C)C4=CC(=O)CC[C@@]4(C)C3C(O)C[C@@]12C (some centres not stated)	max response	24.3
COc1cc2c(cc1OC)C1(O)C(=O)c3ccc(O)c(C(=O)O)c3OC1CO2 (configuration not stated)	max response	21.1
C#CCCCCCCCCCCCc1ccco1	max response	11.4
CCN(CC)Cc1ccc(Nc2ccnc3cc(Cl)ccc23)cc1O	max response	21.7
O=C(O)C(O)C(O)C(O)C(O)C(=O)O (configuration not stated)	max response	13
Nc1ccn([C@@H]2O[C@H](CO)[C@@H](OP(=O)(O)O)[C@H]2O)c(=O)n1	max response	8.34
CCC(=O)O[C@@H]1[C@H](C)O[C@H](O[C@H]2[C@@H](N(C)C)[C@H](O)[C@@H](O[C@@H]3[C@@H](CC=O)C[C@@H](C)[C@@H](O)/C=C\C=C/C[C@@H](C)OC(=O)C[C@@H](OC(=O)CC)[C@H]3OC)O[C@H]2C)C[C@]1(C)O	max response	-6.47

###

- target_or_system: Rap guanine nucleotide exchange factor 3 (Homo sapiens)
- protocol_text: Confirmatory qHTS for antagonist of cAMP-regulated guanine nucleotide exchange factor 3 (EPAC1) (AID 1645880); note: nearly all actives have a fitted effect of over 55% in size
- test_parameters: EPAC1 Rap1B-BODIPY-GDP exchange, fluorescence; series mostly up to 115 µM
Results filed as inconclusive are left out. The source made the active and inactive calls. Calls come from the whole dose curve; as a rule, active = well fitted inhibition curve with a large enough effect; inconclusive = small, poorly fitted or top-dose-only effect; inactive = no such curve, though single readings can be large or run the other way.
Classes used: active, inactive

>>> df
                                   compound  class_assignment
0          CSc1nnc(-c2ccccc2)c(-c2ccccc2)n1          inactive
1  CCOC(=O)c1c(NC(=O)c2ccc(S(=O)(=O)N(C)C3CCCCC3)cc2)sc2c1CCN(C(C)C)C2          inactive
2  Cn1c(=O)c2c(-c3ccccc3Br)n(CCc3ccccc3)cc2n(C)c1=O          inactive
3  O=C(O)c1ccccc1NS(=O)(=O)c1ccc(N/N=C/c2ccc(O)c(O)c2)c([N+](=O)[O-])c1            active
4  CCOc1cc(CNc2ccc(O)cc2)cc(Br)c1OCc1ccccc1            active
5  CCOC(=O)c1c(NC(=O)c2ccc(S(=O)(=O)N3CCC(C)CC3)cc2)sc2c1CCN(C(C)C)C2          inactive
6  Cc1ccc(CN2C(=O)CSC2c2ccc(F)cc2)cc1 (stereo not given)          inactive
7   COc1cc(SC)ccc1C(=O)N(Cc1ccccc1)c1ccccc1          inactive
8  CCOc1ccc(/C=C/C(=O)c2cc(Br)ccc(=O)c2O)cc1            active
9  Cc1cc(C)cc(NC(=O)c2sc3nc(-c4ccccc4)cn3c2C)c1          inactive
